# Test system: MDA-MB-435
# assayInfo: NCI tumour cell line growth inhibition, 48 h
readoutName: TGI

[in] Returns the measured TGI for the input compound. Input: CCCCN(CCCC)CCCN=c1nc2c(c(N)n1-c1ccccc1)c(=S)n(-c1ccccc1)c(=S)n2-c1ccccc1
[out] 0.93 µM

[in] Entry under review: COC(=O)[C@@]1(C)CC[C@]2(C)CC[C@]3(C)C4=CC=C5C(=CC(=O)C(O)=C5C)[C@]4(C)CC[C@@]3(C)[C@@H]2C1 . Reported TGI?
[out] 0.503 µM

[in] Given CC(=O)OC1CCC2(C)C(=CCC3C2CCC2(C)C(C(C)C(=O)O)CCC32)C1 (centres undefined) , state its recorded TGI.
[out] > 100 µM

[in] Return reported TGI; argument: CCCCCC(=O)OCC1(CO)C/C(=C\CC(C(C)C)C(C)C)C(=O)O1 (centres undefined)
[out] > 100 µM

[in] Please give the measured TGI for this compound: CC(=O)OCC12C(OC(C)=O)C[C@@H](C)C3(CC(c4ccoc4)OC3=O)C1CCC(O)C21CO1 (some centres undefined)
[out] > 100 µM

[in] Could you tell me which TGI is on file for COc1cccc(C2C3=C(COC3=O)N(CCO)c3cc4c(cc32)OCCO4)c1 (centres undefined) ?
[out] 0.0767 µM

[in] Which measured TGI value corresponds to O=C1c2ccccc2-c2c1c1ccccc1c(=O)n2CCCN1CCN(CCCn2c3c(c4ccccc4c2=O)C(=O)c2ccccc2-3)CC1 ?
[out] > 100 µM

[in] Item COc1cc2c3c(n(C)c(=O)c2cc1OC)-c1cc2c(cc1/C3=C\CCCBr)OCO2 has what recorded TGI?
[out] > 100 µM

[in] Record request: TGI value, item Cc1cc2c(cc1C)[n+](=O)c(C(=O)N1CCN(c3ccc([N+](=O)[O-])cc3)CC1)c(C)n2[O-]
[out] > 100 µM

[in] Sample CC(=O)NCCc1c[nH]c2ccc(Cl)cc12 — what was its TGI?
[out] > 100 µM

[in] Consider the compound CN(C)CCCNc1nccc(-c2c(-c3ccc(F)cc3)nn3cc(C(F)(F)F)ccc23)n1 and give its measured TGI.
[out] 15.2 µM

[in] What value of measured TGI is listed for CC(C)(C)OC(=O)NC(Cc1cnc[nH]1)C(=O)N1CCCC1C(N)=O (centres undefined) ?
[out] > 100 µM

[in] What does the data say about its TGI? Entry: C=C(C)[C@@]1(O)CCC[C@H]1NC(=O)OC(C)(C)C
[out] > 100 µM

[in] Consider the compound shown here: CC1OC(OC2CC(O)C3(CO)C4C(O)CC5(C)C(C6=CC(=O)OC6)CCC5(O)C4CCC3(O)C2)C(O)C(O)C1O (centres undefined) What is its recorded TGI?
[out] 0.0785 µM

[in] Param item = OCC1OC(n2nc(-c3ccccc3)nc2-c2cnccn2)C(O)C1O (centres undefined) ; retrieve measured TGI.
[out] > 100 µM

[in] Fill blank: measured TGI of the compound COc1ccc(C2=NN(c3ccccc3)C(c3cc4cc(Br)ccc4nc3Cl)C2)cc1 (centres undefined) is ____.
[out] > 25 µM

[in] What does the record list as TGI for C=C1CC(Cn2cc(C)c(=O)[nH]c2=O)(c2ccc(-c3ccccc3)cc2)OC1=O (centres undefined) ?
[out] 3.74 µM

[in] # TGI lookup, item CCCCNC(=O)Nc1c(C(N)=O)c2n(c1C(=O)OCC)CCCCC2
[out] > 100 µM

[in] Entry under review: O=c1cc(-c2ccccc2)oc2ccc(Oc3nnnn3-c3ccccc3)cc12 . Reported TGI?
[out] > 41.9 µM
